target: human IDO1 (Homo sapiens, UniProt P14902); assay: IDO inhibition assay in human IDO1/HEK293 cells (IDO1 HEK Human); settings: HEK293 cells stably expressing human IDO1; 20 hours incubation; absorbance at 490 nm after Ehrlich reagent
Sequence (P14902 whole entry): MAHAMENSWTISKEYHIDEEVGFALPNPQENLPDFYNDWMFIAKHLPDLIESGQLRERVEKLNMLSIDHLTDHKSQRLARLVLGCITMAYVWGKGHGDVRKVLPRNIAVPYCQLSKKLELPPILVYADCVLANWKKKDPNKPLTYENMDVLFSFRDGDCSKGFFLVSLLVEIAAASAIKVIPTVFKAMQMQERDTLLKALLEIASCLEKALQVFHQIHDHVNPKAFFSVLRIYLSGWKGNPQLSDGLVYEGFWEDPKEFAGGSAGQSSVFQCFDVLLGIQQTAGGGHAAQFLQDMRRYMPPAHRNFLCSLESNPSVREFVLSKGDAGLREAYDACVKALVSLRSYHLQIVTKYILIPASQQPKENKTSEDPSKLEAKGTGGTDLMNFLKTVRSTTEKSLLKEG
Would you mind telling me the reported pIC50 of each entry?
Numbers only, as −log10 of the molar value.

Look up pIC50 for the entries below, preserving their order.
1. O=C(Nc1ccccc1F)Nc1cc(-c2ccccc2-c2noc(=O)[nH]2)cc2c1OCCCC2C1CC1 (stereo not shown) [Example 35]
2. c1ccc(C2CCCOc3c(Nc4ccc5ccccc5n4)cc(-c4ccccc4-c4nnn[nH]4)cc32)cc1 (single isomer, unassigned) [Example 83]
3. Fc1cccc2oc(Nc3cc(-c4ccccc4-c4nnn[nH]4)cc4c3OCCCC4C3CC3)nc12 (stereo not shown) [Example 28]

7.71
7.76
8.59

Query (compound): O=C(Nc1nc2ccccc2s1)Nc1cc(-c2ccccc2-c2nnn[nH]2)cc2c1OCCCC2c1ccccc1 (stereo not shown) [Example 18] ; field requested: pIC50 6.02
